B1: SPRY1 (parent)
chain: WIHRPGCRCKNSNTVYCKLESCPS

Variants of: B1
Test: protein stability index of a GFP-peptide fusion (GPS, HEK-293T) (PSI 1-6); higher = more stable;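 also: lentivirally expressed fusions sorted by FACS into six bins by GFP to DsRed ratio, PSI derived from sequencing read proportions per bin multiplied by bin number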
Conditions: c terminus: a fixed tail appended
measure: protein stability index
The response must contain the number and no unit.

C22Q
1.98
S12R
2.03
G6L
1.97
Y16K
2.05

stdin: # query: protein stability index of entry `C17D`
stdout: 1.99

stdin: # query: protein stability index of entry `S21M`
stdout: 1.99

Attribution: the supplement of paper PMC10567573
